biological target: Cannabinoid receptor 1 (Rattus norvegicus); assay: Displacement of [3H]CP55,940 from CB1 receptor in rat brain cortical membranes at 10 uM; format: cell membranes
quantityMeasured: inhibition (%)
Just the number in %, nothing appended.

Consider the worked cases shown below.
molecule: O=C1/C(=C/C=C/c2ccccc2)N=C2SCCCN12
inhibition (%): 18
--
molecule: COc1ccc(/C=C2\N=C3SCCCN3C2=O)cc1
inhibition (%): 5

Kindly review the next molecule as well.
Exercise: Using Cannabinoid receptor 1 (Rattus norvegicus) as the test system, report measured inhibition of CCOC(=O)C1CN2C(=NC(=O)C2(c2ccccc2)c2ccccc2)S1 (stereo not drawn) .
Solution: 0
